target: human gpr-54 receptor (human, UniProt Q969F8 1-398); assay: cell-based or functional assay
Sequence (Q969F8 whole entry): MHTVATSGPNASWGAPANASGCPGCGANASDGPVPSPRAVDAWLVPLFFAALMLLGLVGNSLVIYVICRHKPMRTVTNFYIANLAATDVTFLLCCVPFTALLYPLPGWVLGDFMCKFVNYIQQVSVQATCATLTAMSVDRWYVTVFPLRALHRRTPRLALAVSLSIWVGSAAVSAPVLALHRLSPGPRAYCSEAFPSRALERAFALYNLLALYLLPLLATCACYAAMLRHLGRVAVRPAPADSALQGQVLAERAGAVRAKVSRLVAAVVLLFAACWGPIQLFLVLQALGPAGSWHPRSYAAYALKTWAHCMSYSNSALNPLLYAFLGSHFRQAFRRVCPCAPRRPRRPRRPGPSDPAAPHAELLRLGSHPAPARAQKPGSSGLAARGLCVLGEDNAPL
Non-standard residues stand in square brackets, D forms with d. No end group written: not given here.
With a cut-off of 3000 nM, any IP stimulation (IC50), peptide alone strictly below it is called MET; any IP stimulation (IC50), peptide alone meeting it or above is called NOT MET.

Before answering, review these 5 worked examples.
binder	answer_label
Ac-[dA]NWN[dA]FGLRF-NH2 (SMILES CC(=O)N[C@H](C)C(=O)N[C@@H](CC(N)=O)C(=O)N[C@@H](Cc1c[nH]c2ccccc12)C(=O)N[C@@H](CC(N)=O)C(=O)N[C@H](C)C(=O)N[C@@H](Cc1ccccc1)C(=O)NCC(=O)N[C@@H](CC(C)C)C(=O)N[C@@H](CCCNC(=N)N)C(=O)N[C@@H](Cc1ccccc1)C(N)=O) [277]	MET
Ac-[dA]NWN[dP]FG[dW]RF-NH2 (SMILES CC(=O)N[C@H](C)C(=O)N[C@@H](CC(N)=O)C(=O)N[C@@H](Cc1c[nH]c2ccccc12)C(=O)N[C@@H](CC(N)=O)C(=O)N1CCC[C@@H]1C(=O)N[C@@H](Cc1ccccc1)C(=O)NCC(=O)N[C@H](Cc1c[nH]c2ccccc12)C(=O)N[C@@H](CCCNC(=N)N)C(=O)N[C@@H](Cc1ccccc1)C(N)=O) [275]	MET
YNWNG[dF]GLRF-NH2 (N-terminus assumed; SMILES CC(C)C[C@H](NC(=O)CNC(=O)[C@@H](Cc1ccccc1)NC(=O)CNC(=O)[C@H](CC(N)=O)NC(=O)[C@H](Cc1c[nH]c2ccccc12)NC(=O)[C@H](CC(N)=O)NC(=O)[C@@H](N)Cc1ccc(O)cc1)C(=O)N[C@@H](CCCNC(=N)N)C(=O)N[C@@H](Cc1ccccc1)C(N)=O, kisspeptin-10 analogue; also called YNWNG[(D)-F]GLRF) [211]	MET
Ac-NSFGLRF-NH2 (kisspeptin-10 analogue; also called Peptide 186; acNSFGLRF) [186]	MET
Ac-[dY]NWNSFG[dW]RF-NH2 (SMILES CC(=O)N[C@H](Cc1ccc(O)cc1)C(=O)N[C@@H](CC(N)=O)C(=O)N[C@@H](Cc1c[nH]c2ccccc12)C(=O)N[C@@H](CC(N)=O)C(=O)N[C@@H](CO)C(=O)N[C@@H](Cc1ccccc1)C(=O)NCC(=O)N[C@H](Cc1c[nH]c2ccccc12)C(=O)N[C@@H](CCCNC(=N)N)C(=O)N[C@@H](Cc1ccccc1)C(N)=O) [238]	MET

--- query ---
Qu. Please state whether IP stimulation (IC50), peptide alone is below 3000 nM for Ac-FG[dL]RW-NH2 [191]
Ans. NOT MET
